Reported values: pKi for ENPP1 (Homo sapiens), one per item.
pKi: −log10 of the molar value. Counter-ions that a name gives are not always drawn.
QUANTITY MEASURED: pKi

>>> result("N#Cc1csc2c(NCc3ccc(B(O)O)cc3)ncnc12 [compound 40]")
"> 7.00"
>>> result("CC(=O)Nc1c[nH]c2c(NCc3ccc(B(O)O)cc3)ncnc12 [compound 7]")
"> 6.00"
>>> result("OB(O)c1ccc(CNc2ncnc3cn[nH]c23)cc1 [compound 9]")
"> 7.00"
>>> result("CN(C)C(=O)c1c[nH]c2c(NCc3ccc(B(O)O)cc3)ncnc12 [compound 11]")
"> 6.00"
>>> result("O=CNc1csc2c(NCc3ccc(B(O)O)cc3)ncnc12 [compound 25]")
"> 7.00"
>>> result("Cn1ncc2nc(-c3cccnc3)nc(NCc3ccc(B(O)O)cc3)c21 [compound 31]")
"> 6.00"
>>> result("OB(O)c1ccc(CNc2ncnc3ccsc23)cc1 [compound 26]")
"> 7.00"
>>> result("Cn1ncc2nc(-c3cnccn3)nc(NCc3ccc(B(O)O)cc3)c21 [compound 33]")
"> 7.00"
>>> result("OB(O)c1ccc(CNc2nc(-c3ccccc3)nc3cn[nH]c23)cc1 [compound 28]")
"> 6.00"
>>> result("CNC(=O)c1c[nH]c2c(NCc3ccc(B(O)O)cc3)ncnc12 [compound 17, formic acid]")
"> 7.00"
>>> result("Cn1ncc2nc(-c3ccccn3)nc(NCc3ccc(B(O)O)cc3)c21 [compound 30]")
"> 7.00"
>>> result("Cn1ccc2ncnc(NCc3ccc(B(O)O)cc3)c21 [compound 1, formic acid]")
"> 7.00"
>>> result("CCNC(=O)c1c[nH]c2c(NCc3ccc(B(O)O)cc3)ncnc12 [compound 10, formic acid]")
"> 7.00"
>>> result("NC(=O)c1csc2c(NCc3ccc(B(O)O)cc3)ncnc12 [compound 39]")
"> 7.00"
>>> result("OB(O)c1ccc(CNc2ncnc3cc[nH]c23)cc1 [Cpd. 4]")
"> 5.00"
>>> result("CC(C)c1nc(NCc2ccc(B(O)O)cc2)c2[nH]ncc2n1 [compound 27, formic acid salt]")
"> 6.00"
>>> result("Cn1ncc2nc(/C=C/c3cccnc3)nc(NCc3ccc(B(O)O)cc3)c21 [compound 35]")
"> 7.00"
>>> result("OB(O)c1ccc(CNc2ncnc3nc[nH]c23)cc1 [compound 20]")
"> 5.00"
